system_name: T1, cSNK:BSA conjugate (bovine, head-to-tail cyclized; conjugated to BSA carrier)
T1 construct: also called BSA-cSNK
test_details: BLI (Octet), KD2
Threshold-based label: Kd under 10 nM gives MET, Kd not under 10 nM gives NOT MET.

Here are 3 binders together with their reported answers.
- binder: "5E3HCDR3-E209D (antibody, IgG1, V domains shown, hu5E3 IgG1 vector mutant; same change as 5E3HCDR3-E255D) VH: QVQLQQSGPEVKKPGASVKISCKASGYIFTSYYIQWVIHAPGQGLEWIGWIYPGNVNTKYNEKFKGKATLTADKSSSTAYMELSSLTSEDTAVYFCARMDYDAHYWGQGTTVTVSS VL: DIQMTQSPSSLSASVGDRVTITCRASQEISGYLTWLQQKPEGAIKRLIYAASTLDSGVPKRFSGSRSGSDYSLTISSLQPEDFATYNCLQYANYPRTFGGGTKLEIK"
  label_class: "MET"
- binder: "5E3KCDR3-L89I (antibody, IgG1, V domains shown, hu5E3 IgG1 vector mutant) VH: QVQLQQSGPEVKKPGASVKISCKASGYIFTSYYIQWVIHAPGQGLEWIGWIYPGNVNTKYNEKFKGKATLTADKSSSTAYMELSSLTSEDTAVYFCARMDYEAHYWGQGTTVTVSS VL: DIQMTQSPSSLSASVGDRVTITCRASQEISGYLTWLQQKPEGAIKRLIYAASTLDSGVPKRFSGSRSGSDYSLTISSLQPEDFATYNCIQYANYPRTFGGGTKLEIK"
  label_class: "NOT MET"
- binder: "5E3KCDR2-S80D (antibody, IgG1, V domains shown, hu5E3 IgG1 vector mutant; also called 5E3-S80D-AFF) VH: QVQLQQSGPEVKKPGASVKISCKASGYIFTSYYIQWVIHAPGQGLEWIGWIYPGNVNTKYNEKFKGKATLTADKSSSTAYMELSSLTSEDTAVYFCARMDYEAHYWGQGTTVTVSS VL: DIQMTQSPSSLSASVGDRVTITCRASQEISGYLTWLQQKPEGAIKRLIYAASTLDDGVPKRFSGSRSGSDYSLTISSLQPEDFATYNCLQYANYPRTFGGGTKLEIK"
  label_class: "MET"

Let's switch to this binder now.
Request: Is 10 nM strictly greater than the binder's reported Kd? binder: 5E3HCDR2-V209Y (antibody, IgG1, V domains shown, hu5E3 IgG1 vector mutant) VH: QVQLQQSGPEVKKPGASVKISCKASGYIFTSYYIQWVIHAPGQGLEWIGWIYPGNYNTKYNEKFKGKATLTADKSSSTAYMELSSLTSEDTAVYFCARMDYEAHYWGQGTTVTVSS VL: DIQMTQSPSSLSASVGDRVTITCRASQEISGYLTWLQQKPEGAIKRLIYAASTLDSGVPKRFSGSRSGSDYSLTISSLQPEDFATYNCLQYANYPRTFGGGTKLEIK
Response: MET
